Consider the following molecules and their measured MIC readings.
Test system: Staphylococcus aureus
Test: In vitro minimum inhibitory concentration against Staphylococcus aureus ATCC 29213
Format: functional
Answer with a number only, understood to be in µg/mL.

NC[C@@H]1C[C@H](O)[C@@H](N)[C@H](O[C@H]2[C@H](O)[C@@H](OC[C@@H](O)CNCCCNC[C@@H](O)CO[C@@H]3[C@@H](O)[C@H](O[C@H]4O[C@H](CN)[C@@H](O)C[C@H]4N)[C@@H](N)C[C@H]3N)[C@H](N)C[C@@H]2N)O1 ... 1.3

Kindly consider the entry below.
Look at this molecule and give its reported MIC. NC[C@H]1O[C@H](O[C@H]2[C@H](OC[C@H](O)CN3CCN(C[C@@H](O)CO[C@@H]4[C@@H](O)[C@H](N)C[C@H](N)[C@H]4O[C@H]4O[C@H](CN)[C@@H](O)[C@H](O)[C@H]4N)CC3)[C@@H](O)[C@H](N)C[C@@H]2N)[C@H](N)[C@@H](O)[C@@H]1O
12.5

====

System: Enterococcus faecalis
Experiment: In vitro minimum inhibitory concentration against Enterococcus faecalis 29212
Format: functional
MEASURED_ENDPOINT: MIC

Look at this molecule and give its reported MIC. CN(CCCCN(C)C[C@@H](O)CO[C@@H]1[C@@H](O)[C@H](O[C@H]2O[C@H](CN)[C@@H](O)C[C@H]2N)[C@@H](N)C[C@H]1N)C[C@H](O)CO[C@@H]1[C@@H](O)[C@H](O[C@@H]2O[C@H](CN)C[C@H](O)[C@H]2N)[C@@H](N)C[C@H]1N
20.9 µg/mL

Then this molecule: CCN(CCN(CC)C[C@@H](O)CO[C@@H]1[C@@H](O)[C@H](N)C[C@H](N)[C@H]1O[C@H]1O[C@H](CN)[C@@H](O)[C@H](O)[C@H]1N)C[C@@H](O)CO[C@@H]1[C@@H](O)[C@H](N)C[C@H](N)[C@H]1O[C@H]1O[C@H](CN)[C@@H](O)[C@H](O)[C@H]1N
> 50 µg/mL

Then this molecule: CN(CCCCN(C)C[C@@H](O)CO[C@@H]1[C@@H](O)[C@H](N)C[C@H](N)[C@H]1O[C@H]1O[C@H](CN)[C@@H](O)C[C@H]1N)C[C@H](O)CO[C@@H]1[C@@H](O)[C@H](N)C[C@H](N)[C@H]1O[C@H]1O[C@H](CN)[C@@H](O)[C@H](O)[C@H]1N
> 50 µg/mL

Then this molecule: NC[C@@H]1C[C@H](O)[C@@H](N)[C@H](O[C@H]2[C@H](O)[C@@H](OC[C@@H](O)CNCCCNC[C@@H](O)CO[C@@H]3[C@@H](O)[C@H](O[C@H]4O[C@H](CN)[C@@H](O)C[C@H]4N)[C@@H](N)C[C@H]3N)[C@H](N)C[C@@H]2N)O1
> 20.9 µg/mL

====

Test system: Staphylococcus aureus
Assay: In vitro minimum inhibitory concentration against Staphylococcus aureus ATCC 29213
Type: functional
MEASURED_ENDPOINT: MIC (µg/mL)
Answer with a number only, understood to be in µg/mL.

NC[C@H]1O[C@H](O[C@H]2[C@H](OC[C@H](O)CN3CCCN(C[C@@H](O)CO[C@@H]4[C@@H](O)[C@H](N)C[C@H](N)[C@H]4O[C@H]4O[C@H](CN)[C@@H](O)[C@H](O)[C@H]4N)CC3)[C@@H](O)[C@H](N)C[C@@H]2N)[C@H](N)[C@@H](O)[C@@H]1O ... 12.5
NC[C@H]1O[C@H](O[C@H]2[C@H](OC[C@H](O)CN3CC4CC3CN4C[C@@H](O)CO[C@@H]3[C@@H](O)[C@H](N)C[C@H](N)[C@H]3O[C@H]3O[C@H](CN)[C@@H](O)[C@H](O)[C@H]3N)[C@@H](O)[C@H](N)C[C@@H]2N)[C@H](N)[C@@H](O)[C@@H]1O ... 12.5

Look at this compound and give its reported MIC. CN(CCCCCCN(C)C[C@@H](O)CO[C@@H]1[C@@H](O)[C@H](N)C[C@H](N)[C@H]1O[C@H]1O[C@H](CN)[C@@H](O)[C@H](O)[C@H]1N)C[C@@H](O)CO[C@@H]1[C@@H](O)[C@H](N)C[C@H](N)[C@H]1O[C@H]1O[C@H](CN)[C@@H](O)[C@H](O)[C@H]1N
6.3

Then this compound: NC[C@H]1O[C@H](O[C@H]2[C@H](OC[C@@H](O)CNCCCCNC[C@@H](O)CO[C@@H]3[C@@H](O)[C@H](N)C[C@H](N)[C@H]3O[C@H]3O[C@H](CN)[C@@H](O)C[C@H]3N)[C@@H](O)[C@H](N)C[C@@H]2N)[C@H](N)[C@@H](O)[C@@H]1O
2
